The origin of these recorded values is ChEMBL document CHEMBL1201862.

Quick reference for GI50 among some compounds
- Test system: SK-OV-3
- Procedure details: NCI tumour cell line growth inhibition, 48 h
Calls of active or inactive are those of the source. Rule as the data show it: active = GI50 up to about 1.1 µM and inactive = higher.
Result type: GI50

Compound: CN1CCC23c4c5ccc(O)c4OC2C(=NN=C2CCC4(O)C6Cc7ccc(O)c8c7C4(CCN6C)C2O8)CCC3(O)C1C5 (centres undefined)
Result type: GI50
Reported result: > 100 µM (inactive)

Compound: O=c1cc(-c2ccccc2)oc2ccc(Cl)cc12 [6-CHLOROFLAVONE]
Result type: GI50
Reported result: 68.2 µM (inactive)

Compound: CCc1ccccc1NC(=O)C(=O)CC(=O)c1sc(Nc2ccccc2Cl)nc1C
Result type: GI50
Reported result: 24.2 µM (inactive)

Compound: CCOC(=O)[C@H](CO)NC1=C(Cl)C(=O)c2c(O)ccc(O)c2C1=O
Result type: GI50
Reported result: > 10 µM (inactive)

Compound: Nc1c(-c2ccc(Cl)cc2Cl)[n+]([O-])c2ccccc2[n+]1[O-]
Result type: GI50
Reported result: > 100 µM (inactive)

Compound: O=C1c2ccccc2CC12Cc1ccc3c(c1C2)CCC3 (centres undefined)
Result type: GI50
Reported result: 33.3 µM (inactive)

Compound: CC(=O)OCC1OC(n2c(-c3cccs3)c3c(c(C#N)c2=S)-c2ccccc2CC3)C(OC(C)=O)C(OC(C)=O)C1OC(C)=O (centres undefined)
Result type: GI50
Reported result: 20.2 µM (inactive)

Compound: CN/C=C(/c1ccc(OC)cc1)C(O)c1ccc(OC)c(OC)c1 (centres undefined)
Result type: GI50
Reported result: > 100 µM (inactive)

Compound: O=C(c1ccc(Cl)cc1)c1ccc(OCCCOc2ccc(C(=O)c3ccc(Cl)cc3)cc2)cc1
Result type: GI50
Reported result: > 100 µM (inactive)
